# targetOfAssay: Replicase polyprotein 1ab (Severe acute respiratory syndrome coronavirus 2)
# assayDetails: Inhibition of SARS CoV-2 PL protease
I'd be grateful if you could share measured IC50 for these entries.

Q) Returns the measured IC50 for the input compound. Input: CC(=O)N[C@@H](CCc1ccc(O)cc1)C(=O)N[C@@H](CN)C(=O)NCC(=O)NC/C=C/C(=O)O
A) 10 µM

Q) One more compound: CC(=O)N[C@@H](CCc1nc2ccccc2s1)C(=O)N[C@@H](CN)C(=O)NCC(=O)NC/C=C/C(=O)O
A) 10 µM

* * *

# Test system: SARS-CoV-2
# assayDetails: Antiviral activity against SARS CoV-2 clinical isolate 2019-nCoV/USA-WA1/2020 infected in African green monkey Vero E6 cells incubated for 48 hrs by CellTiter-Glo assay
# Format: functional, organism-based
# conditionInfo: Severe acute respiratory syndrome coronavirus 2, 2019-nCoV/USA-WA1/2020, Vero C1008, 48 h
measuredQuantity: pEC50
Value format note: pEC50 is -log10 of concentration (mol/L); just state the number.

Q) Returns the measured pEC50 for the input molecule. Input: O=c1nc(NO)ccn1[C@@H]1O[C@H](CO)[C@@H](O)[C@H]1O [N-HYDROXYCYTIDINE]
A) 6.52

* * *

# assayDetails: Half life in CD1 mouse at 50 mg/kg, po administered as single dose by LC-MS/MS analysis
# Type: ADME, organism-based
# conditionInfo: in vivo
measuredQuantity: half-life (h)
Please reply with the bare figure in h and do not write the unit itself.

Q) Returns the measured half-life for the input compound. Input: O=c1nc(NO)ccn1[C@@H]1O[C@H](CO)[C@@H](O)[C@H]1O [N-HYDROXYCYTIDINE]
A) 5.2

* * *

# assayDetails: Oral bioavailability in CD1 mouse at 150 mg/kg administered as single dose by LC-MS/MS analysis
# Assay type: ADME, organism-based
# conditionInfo: in vivo
measuredQuantity: bioavailability (%)
Please reply with the bare figure in % and do not write the unit itself.

Q) Returns the measured bioavailability for the input compound. Input: O=c1nc(NO)ccn1[C@@H]1O[C@H](CO)[C@@H](O)[C@H]1O [N-HYDROXYCYTIDINE]
A) 43

* * *

# assayDetails: Cmax in CD-1 mouse at 5 mg/kg, iv measured after up to 24 hrs by LC-MS/MS analysis
# Assay type: ADME, organism-based
# Parameters: dose 5 mg/kg, time < 24 hrs, route iv
# conditionInfo: in vivo
measuredQuantity: Cmax

Q) Returns the measured Cmax for the input compound. Input: O=C[C@H](C[C@@H]1CCNC1=O)NC(=O)[C@H](CC1CC1)NC(=O)c1cc2ccccc2[nH]1
A) > 2360 ng/mL

* * *

# assayDetails: AUClast in Beagle dog at 5 mg/kg, iv measured after up to 24 hrs by LC-MS/MS analysis
# Type: ADME, organism-based, Canis lupus familiaris
# Design: time < 24 hrs, dose 5 mg/kg, route iv
# conditionInfo: in vivo
measuredQuantity: AUC(0-t) at 24 h (ng·h/mL)
Please reply with the bare figure in ng·h/mL and do not write the unit itself.

Q) Returns the measured AUC(0-t) at 24 h for the input molecule. Input: O=C[C@H](C[C@@H]1CCNC1=O)NC(=O)[C@H](CC1CC1)NC(=O)c1cc2ccccc2[nH]1
A) 14900

* * *

# assayDetails: Bioavailability in CD-1 mouse at 5 mg/kg, iv measured after up to 24 hrs by LC-MS/MS analysis
# Type: ADME, organism-based
# conditionInfo: in vivo
measuredQuantity: bioavailability

Q) Returns the measured bioavailability for the input compound. Input: O=C[C@H](C[C@@H]1CCNC1=O)NC(=O)[C@H](CC1CC1)NC(=O)c1cc2ccccc2[nH]1
A) > 85%

* * *

# assayDetails: Cytotoxicity against African green monkey Vero E6 cells incubated for 3 hrs by CCK-8 assay
# Format: toxicity, cell-based, Vero C1008
# conditionInfo: chlorocebus sabaeus
I'd be grateful if you could share measured CC50 at 3 h for these entries.

Q) Returns the measured CC50 at 3 h for the input molecule. Input: O=c1cc(-c2ccccc2)oc2cc(O)c(O)c(O)c12
A) > 200 µM

Q) One more molecule: O=C(O)[C@H]1O[C@@H](Oc2cc3oc(-c4ccccc4)cc(=O)c3c(O)c2O)[C@H](O)[C@@H](O)[C@@H]1O
A) > 200 µM

* * *

# assayDetails: Half life in Beagle dog at 5 mg/kg, iv measured after up to 24 hrs by LC-MS/MS analysis
# Type: ADME, organism-based, Canis lupus familiaris
# conditionInfo: in vivo
measuredQuantity: half-life (h)
Please reply with the bare figure in h and do not write the unit itself.

Q) Returns the measured half-life for the input molecule. Input: O=C[C@H](C[C@@H]1CCNC1=O)NC(=O)[C@H](CC1CC1)NC(=O)c1cc2ccccc2[nH]1
A) 5.5

* * *

# assayDetails: Half life in CD-1 mouse at 3 mg/kg, sc measured after up to 24 hrs by HPLC-MS/MS analysis
# Assay type: ADME, organism-based
# conditionInfo: in vivo
measuredQuantity: half-life

Q) Returns the measured half-life for the input compound. Input: CC(C)(C)OC(=O)Nc1cccn([C@@H](CC2CC2)C(=O)N[C@@H](C[C@@H]2CCNC2=O)C(=O)C(=O)NCc2ccccc2)c1=O
A) < 2 h

* * *

# assayDetails: Half life in CD1 mouse at 150 mg/kg, po administered as single dose by LC-MS/MS analysis
# Format: ADME, organism-based
# conditionInfo: in vivo
measuredQuantity: half-life (h)
Please reply with the bare figure in h and do not write the unit itself.

Q) Returns the measured half-life for the input compound. Input: O=c1nc(NO)ccn1[C@@H]1O[C@H](CO)[C@@H](O)[C@H]1O [N-HYDROXYCYTIDINE]
A) 3.2

* * *

# assayDetails: Clearance in CD-1 mouse at 5 mg/kg, iv measured after up to 24 hrs by LC-MS/MS analysis
# Format: ADME, organism-based
# conditionInfo: in vivo
measuredQuantity: clearance (mL/min/kg)
Please reply with the bare figure in mL/min/kg and do not write the unit itself.

Q) Returns the measured clearance for the input compound. Input: O=C[C@H](C[C@@H]1CCNC1=O)NC(=O)[C@H](CC1CC1)NC(=O)c1cc2ccccc2[nH]1
A) 17

* * *

# assayDetails: Half life in Sprague-Dawley rat at 10 mg/kg, iv measured after up to 24 hrs by LC-MS/MS analysis
# Type: ADME, organism-based
# conditionInfo: in vivo
measuredQuantity: half-life (h)
Please reply with the bare figure in h and do not write the unit itself.

Q) Returns the measured half-life for the input compound. Input: O=C[C@H](C[C@@H]1CCNC1=O)NC(=O)[C@H](CC1CC1)NC(=O)c1cc2ccccc2[nH]1
A) 7.6

* * *

# System: Murine hepatitis virus
# assayDetails: Antiviral activity against MHV-A59 infected in African green monkey Vero cells assessed as inhibition of plaque formation by viral plaque assay
# Format: functional, organism-based
# conditionInfo: Murine coronavirus
measuredQuantity: pEC50
Value format note: pEC50 is -log10 of concentration (mol/L); just state the number.

Q) Returns the measured pEC50 for the input molecule. Input: Cc1cc(C(=O)N[C@@H](C)C(=O)N[C@H](C(=O)N[C@@H](CC(C)C)C(=O)N[C@H](/C=C/C(=O)OCc2ccccc2)C[C@@H]2CCNC2=O)C(C)C)no1
A) 5.57

* * *

# assayDetails: Half life in CD1 mouse at 500 mg/kg, po administered as single dose by LC-MS/MS analysis
# Assay type: ADME, organism-based
# conditionInfo: in vivo
measuredQuantity: half-life (h)
Please reply with the bare figure in h and do not write the unit itself.

Q) Returns the measured half-life for the input molecule. Input: O=c1nc(NO)ccn1[C@@H]1O[C@H](CO)[C@@H](O)[C@H]1O [N-HYDROXYCYTIDINE]
A) 2.7

* * *

# assayDetails: Half life in CD-1 mouse at 5 mg/kg, iv measured after up to 24 hrs by LC-MS/MS analysis
# Format: ADME, organism-based
# conditionInfo: in vivo
measuredQuantity: half-life (min)
Please reply with the bare figure in min and do not write the unit itself.

Q) Returns the measured half-life for the input compound. Input: O=C[C@H](C[C@@H]1CCNC1=O)NC(=O)[C@H](CC1CC1)NC(=O)c1cc2ccccc2[nH]1
A) 264

* * *

# assayDetails: Clearance in Beagle dog at 5 mg/kg, iv measured after up to 24 hrs by LC-MS/MS analysis
# Format: ADME, organism-based, Canis lupus familiaris
# conditionInfo: in vivo
measuredQuantity: clearance (mL/min/kg)
Please reply with the bare figure in mL/min/kg and do not write the unit itself.

Q) Returns the measured clearance for the input molecule. Input: O=C[C@H](C[C@@H]1CCNC1=O)NC(=O)[C@H](CC1CC1)NC(=O)c1cc2ccccc2[nH]1
A) 5.8

* * *

# assayDetails: Clearance in CD-1 mouse at 5 to 20 mg/kg, ip measured after up to 24 hrs by LC-MS/MS analysis
# Assay type: ADME, organism-based
# conditionInfo: in vivo, dose 5-20 mg/kg
measuredQuantity: CL/F (mL/min/kg)
Please reply with the bare figure in mL/min/kg and do not write the unit itself.

Q) Returns the measured CL/F for the input compound. Input: O=C[C@H](C[C@@H]1CCNC1=O)NC(=O)[C@H](Cc1cccc(F)c1)NC(=O)c1cc2ccccc2[nH]1
A) 21
